test system: Z-138 cell line; experiment: Z-138 Proliferation Assay (Cell Titer Glo, 5 days); type: cell-based; settings: Homo sapiens, 120 h; Z-138 cells, 5 days, Cell Titer Glo; read-out: Proliferation EC50
MEASURE_NAME: EC50

Use the examples below as a reference point.
{"STRUCTURE_SMILES_STRING": "CN(CCN)c1nc(NC2CNC2)cc(C(=O)NC[C@H](O)CN2CCc3ccccc3C2)n1", "EC50": "1000 to 10000 nM"}
{"STRUCTURE_SMILES_STRING": "CC(C)(C)c1nc(NC2CNC2)cc(C(=O)NC[C@H](O)CN2CCc3ccccc3C2)n1", "EC50": "1000 to 10000 nM"}
{"STRUCTURE_SMILES_STRING": "CC(=O)N1CC(Oc2cc(C(=O)NC[C@H](O)CN3CCc4ccccc4C3)ncn2)C1", "EC50": "101 to 1000 nM"}

Here is the next item to consider.
Look up and report measured EC50 for this entry: O=C(NC[C@H](O)CN1CCc2ccccc2C1)c1cc(Nc2cc[nH]n2)ncn1
1000 to 10000 nM

---

target: PRMT5/MEP50 (Homo sapiens (Human), UniProt O14744); test: PRMT5 Biochemical Assay (PRMT5/MEP50 enzyme assay on peptide substrate, 3H-SAM Flashplate)
Sequence (O14744 other isoform, or with tags, fused parts or gaps): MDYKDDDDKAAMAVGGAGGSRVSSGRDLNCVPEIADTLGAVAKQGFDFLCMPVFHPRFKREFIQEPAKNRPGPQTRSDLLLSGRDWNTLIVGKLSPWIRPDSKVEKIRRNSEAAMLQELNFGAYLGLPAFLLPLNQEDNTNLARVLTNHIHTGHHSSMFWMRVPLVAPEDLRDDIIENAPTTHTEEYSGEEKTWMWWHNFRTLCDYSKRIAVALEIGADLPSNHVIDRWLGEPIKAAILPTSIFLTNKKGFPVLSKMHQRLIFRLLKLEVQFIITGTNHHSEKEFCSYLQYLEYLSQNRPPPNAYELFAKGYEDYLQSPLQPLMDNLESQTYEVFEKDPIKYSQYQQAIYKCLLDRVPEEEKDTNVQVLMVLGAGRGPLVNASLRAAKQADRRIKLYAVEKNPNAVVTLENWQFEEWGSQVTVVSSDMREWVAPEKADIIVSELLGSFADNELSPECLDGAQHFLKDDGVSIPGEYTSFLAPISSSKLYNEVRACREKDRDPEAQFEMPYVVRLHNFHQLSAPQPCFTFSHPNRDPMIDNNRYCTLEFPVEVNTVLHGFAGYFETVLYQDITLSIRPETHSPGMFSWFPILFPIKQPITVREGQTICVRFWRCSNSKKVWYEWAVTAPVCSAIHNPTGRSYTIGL
Sequence (Q9BQA1 other isoform, or with tags, fused parts or gaps partner): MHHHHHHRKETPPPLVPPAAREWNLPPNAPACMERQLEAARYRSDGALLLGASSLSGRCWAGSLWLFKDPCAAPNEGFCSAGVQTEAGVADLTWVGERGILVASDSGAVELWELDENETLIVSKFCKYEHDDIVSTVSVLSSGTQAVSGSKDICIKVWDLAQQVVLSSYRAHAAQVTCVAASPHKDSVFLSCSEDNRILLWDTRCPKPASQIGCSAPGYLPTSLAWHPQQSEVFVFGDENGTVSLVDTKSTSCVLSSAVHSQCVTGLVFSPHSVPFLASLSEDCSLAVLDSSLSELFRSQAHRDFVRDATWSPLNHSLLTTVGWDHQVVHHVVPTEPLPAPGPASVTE
MEASURE_NAME: IC50

Use the examples below as a reference point.
{"COMPOUND": "CNCCOc1ccc(C(=O)NC[C@H](O)CN2CCc3ccccc3C2)cc1", "IC50": "< 100 nM"}
{"COMPOUND": "O=C(NCC(O)CN1CCc2ccccc2C1)c1cccc(CN2CCOCC2)c1 (centres unmarked)", "IC50": "101 to 1000 nM"}
{"COMPOUND": "O=C(NC[C@H](O)CN1CCc2ccccc2C1)c1ccc(OCCCN2CCCCC2)cc1", "IC50": "101 to 1000 nM"}
{"COMPOUND": "CC(C)N1CCN(c2cc(C(=O)NC[C@H](O)CN3CCc4ccccc4C3)cc(NC3CCC3)n2)CC1", "IC50": "< 100 nM"}

Here is the next item to consider.
Look up and report measured IC50 for this entry: CN(C[C@H](O)CN1CCc2ccccc2C1)C(=O)c1ccnc(N(C)C2CCOCC2)c1
1000 to 10000 nM

---

Measured EC50, listed per entry.
test system: Z-138 cell line; experiment: Z-138 Proliferation Assay (Cell Titer Glo, 5 days); type: cell-based; conditions: Homo sapiens, 120 h; Z-138 cells, 5 days, Cell Titer Glo; read-out: Proliferation EC50

Use the examples below as a reference point.
{"COMPOUND": "CN(C)c1nc(NC2COC2)cc(C(=O)NC[C@H](O)CN2CCc3ccccc3C2)n1", "MEASUREMENT_TARGET": "Z-138 cell line", "EC50": "101 to 1000 nM"}
{"COMPOUND": "Cc1cc(Nc2cc(C(=O)NC[C@H](O)CN3CCc4ccccc4C3)ccn2)n[nH]1", "MEASUREMENT_TARGET": "Z-138 cell line", "EC50": "1000 to 10000 nM"}
{"COMPOUND": "CC(=O)N1CC(Nc2cc(C(=O)NC[C@H](O)CN3CCc4c(C)cccc4C3)ncn2)C1", "MEASUREMENT_TARGET": "Z-138 cell line", "EC50": "1000 to 10000 nM"}
{"COMPOUND": "CC(=O)N1CCC(Nc2cc(C(=O)NC[C@H](O)CN3CCc4cc(C)ccc4C3)ccn2)CC1", "MEASUREMENT_TARGET": "Z-138 cell line", "EC50": "101 to 1000 nM"}
{"COMPOUND": "CC(=O)N1CCC(Nc2cc(C(=O)NC[C@H](O)CN3CCc4ccc(C)cc4C3)ccn2)CC1", "MEASUREMENT_TARGET": "Z-138 cell line", "EC50": "101 to 1000 nM"}
{"COMPOUND": "CN(C)C(=O)CN1CCC(Nc2cc(C(=O)NC[C@H](O)CN3CCc4ccccc4C3)ncn2)CC1", "MEASUREMENT_TARGET": "Z-138 cell line", "EC50": "101 to 1000 nM"}
{"COMPOUND": "COCC(=O)N1CC(Nc2cc(C(=O)NC[C@H](O)CN3CCc4ccccc4C3)ncn2)C1", "MEASUREMENT_TARGET": "Z-138 cell line", "EC50": "101 to 1000 nM"}
{"COMPOUND": "O=C(NC[C@H](O)CN1CCc2ccccc2C1)c1cc(N[C@H]2C[C@@H](C(=O)N3CCC3)C2)ncn1", "MEASUREMENT_TARGET": "Z-138 cell line", "EC50": "101 to 1000 nM"}

Write down measured EC50 (Z-138 cell line) for this compound. CN1CCN(c2cc(C(=O)NC[C@H](O)CN3CCc4ccccc4C3)cc(NC3CCC3)n2)CC1
< 100 nM
